Experiment: Acute toxicity in human DU145 cells assessed as cell death/lysis at 100 uM after 4 hrs by LDH assay
Type: cell-based, DU-145
Settings: read-out: INH
I'd be grateful if you could share measured cytotoxicity at 4 h, 100 µM for these entries.

Memo: "CCCC[C@H](NC(C)=O)C(=O)N[C@@H](CC(C)C)C(=O)N[C@@H](CC(C)C)C(=O)N[C@@H](CCCC)C(=O)N[C@@H](CCCNC(=N)N)C(=O)N[C@H](C(=O)N[C@@H](CCCCN)C(=O)N[C@@H](CCCNC(=N)N)C(N)=O)C(C)C" , reported cytotoxicity at 4 h, 100 µM: < 5%

Memo: "CC(=O)N[C@@H](CC(C)C)C(=O)N[C@@H](CC(C)C)C(=O)N[C@H](CC(C)C)C(=O)N[C@@H](CC(C)C)C(=O)N[C@@H](CCCNC(=N)N)C(=O)N[C@H](C(=O)N[C@@H](CCCCN)C(=O)N[C@@H](CCCNC(=N)N)C(N)=O)C(C)C" , reported cytotoxicity at 4 h, 100 µM: < 5%

Data provenance: ChEMBL document CHEMBL3112425
